Origin of measurements: ChEMBL document CHEMBL5338791

Items are presented alongside their recorded pIC50.
biological target: S-phase kinase-associated protein 2/Cyclin-dependent kinases regulatory subunit 1/S-phase kinase-associated protein 1 (Homo sapiens, UniProt Q13309); assay: Inhibition of GST-tagged Skp2/Skp1 (unknown origin)/His6-tagged Cks1 (unknown origin) interaction preincubated with Skp2/Skp1 for 10 mins followed by Cks1 addition measured after 20 mins by HTRF assay; assay type: protein assay
Sequence (P61024 whole entry): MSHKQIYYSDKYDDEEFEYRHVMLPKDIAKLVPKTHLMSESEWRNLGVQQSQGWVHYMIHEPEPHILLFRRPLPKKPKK
Sequence (Q13309 whole entry): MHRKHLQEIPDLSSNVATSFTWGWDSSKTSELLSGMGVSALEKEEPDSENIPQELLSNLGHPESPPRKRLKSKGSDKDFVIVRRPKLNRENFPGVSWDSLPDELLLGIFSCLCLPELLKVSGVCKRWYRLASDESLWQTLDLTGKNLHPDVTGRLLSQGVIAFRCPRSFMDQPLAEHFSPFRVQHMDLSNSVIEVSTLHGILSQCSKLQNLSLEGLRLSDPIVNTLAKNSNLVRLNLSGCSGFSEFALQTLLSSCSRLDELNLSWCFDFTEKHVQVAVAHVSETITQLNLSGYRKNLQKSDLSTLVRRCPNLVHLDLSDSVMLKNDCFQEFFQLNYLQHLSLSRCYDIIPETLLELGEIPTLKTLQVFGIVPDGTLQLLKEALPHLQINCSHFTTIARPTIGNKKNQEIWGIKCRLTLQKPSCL
Sequence (P63208 whole entry, further chain): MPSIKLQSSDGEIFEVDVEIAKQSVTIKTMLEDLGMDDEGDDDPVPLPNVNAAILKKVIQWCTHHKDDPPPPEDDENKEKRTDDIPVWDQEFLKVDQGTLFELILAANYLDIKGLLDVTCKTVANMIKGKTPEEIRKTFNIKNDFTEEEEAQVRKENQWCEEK
pIC50: −log10 of the molar value.

Known results for molecules:
INSERT INTO results (given_smiles, meas_value) VALUES
  ('c1ccc(-c2ncc(NC3CCCCC3)nc2-c2ccccc2)cc1', '< 4.30'),
  ('O=C(C1CCCCC1)N1CCN(c2cnc(-c3ccccc3)c(-c3ccccc3)n2)CC1', '< 4.60'),
  ('c1ccc(-c2ncc(N3CCOCC3)nc2-c2ccccc2)cc1', '< 4.30'),
  ('O=C(CCl)NCC1CCN(c2cnc(-c3ccccc3)c(-c3ccccc3)n2)CC1', '< 4.60');

Look up pIC50 for this molecule: CC(C)N(CCCCOCC(=O)NS(C)(=O)=O)c1cnc(-c2ccccc2)c(-c2ccccc2)n1
4.37
